Assay Info: folding stability dG unfold from trypsin proteolysis; higher = more stable
Please go through the items and note down their folding stability dG unfold.
Number only, in kcal/mol; omit the unit.

Exam item: State the recorded folding stability dG unfold for this entry: SAGGSAGGSAGSMTTTTTIVKLPNGTLVLETPTVTTTTFPETGTTTTTTTVTVTVLPGLSSAGGSAGGSAGG [r11_1008_JUSTAS]
Marked response: 2.47

Exam item: Moving on to the next sequence: SAGKEKEVKEVTIKIKIYVTNKNGEKKEITIEVKAKNKEDLLEALKKLGLSVEELKEKFPNIKIVEIEPSAG [r5_430_TrROS_Hall]
Marked response: 2.3

Exam item: Moving on to the next sequence: SAGGSAGGSAGGMKTYSVEELRARLEEEGKEPTLEELASLPGAKVELNKETKEATIVLKPSAGGSAGGSAGG [r7_180_TrROS_Hall]
Marked response: 0.044

Exam item: Moving on to the next sequence: SAGGSAGGSAGNKDYPVIEVTYPFPPGAPASDIKDFAEPFGFESIEFDDNGTVKVYFYLPSAGGSAGGSAGG [r11_961_TrROS]
Marked response: 0.737
